Where these numbers come from: paper PMC5000470

Some compounds, each annotated with its measured inhibition at 100 µg/mL.
# target: PTP1β (human, recombinant) (Homo sapiens, UniProt P18031)
# Construct: purchased BIOMOL International LP (Plymouth Meeting, PA)
# Sequence (P18031 1-435): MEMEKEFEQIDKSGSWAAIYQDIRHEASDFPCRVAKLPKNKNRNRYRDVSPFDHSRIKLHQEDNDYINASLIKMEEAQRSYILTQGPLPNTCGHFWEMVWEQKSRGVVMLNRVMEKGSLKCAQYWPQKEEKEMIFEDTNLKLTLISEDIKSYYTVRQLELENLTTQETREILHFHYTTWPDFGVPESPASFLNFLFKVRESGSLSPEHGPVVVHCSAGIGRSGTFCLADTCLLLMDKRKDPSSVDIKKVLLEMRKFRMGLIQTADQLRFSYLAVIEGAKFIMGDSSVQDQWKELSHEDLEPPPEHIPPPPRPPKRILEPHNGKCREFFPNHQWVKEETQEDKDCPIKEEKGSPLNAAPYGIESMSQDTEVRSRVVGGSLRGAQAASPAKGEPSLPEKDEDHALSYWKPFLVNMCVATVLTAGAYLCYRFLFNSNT
# test.summary: PTP1β inhibitory activity assay (pNPP substrate)
# Type: biochemical
# protocol.conditions: Table 2; concentration 100 μg/mL; read-out: Inhibition (%)

COc1cc(C(=O)O)ccc1O ... < 50%
COc1cc(/C=C/C(=O)O)ccc1O ... 96.1%
OC[C@H]1O[C@@H](Oc2cc3c(O)cc(O)cc3[o+]c2-c2ccc(O)cc2)[C@H](O)[C@@H](O)[C@@H]1O [compound 9, pelargonidin-3-glucoside] ... 55%
O=C(O)/C=C/c1ccc(O)cc1 [compound 4, p-4-hydroxycinnamic acid] ... < 50%
O=C(O)c1c(O)cc(O)cc1O [compound 3, 2,4,6-trihydroxy benzoic acid] ... < 50%

Can you share its inhibition at 100 µg/mL? I mean this compound: OC[C@H]1O[C@@H](Oc2cc3c(O)cc(O)cc3[o+]c2-c2ccc(O)c(O)c2)[C@H](O)[C@@H](O)[C@@H]1O [compound 8, cyanidin-3-glucoside]
< 50%

Can you share its inhibition at 100 µg/mL? I mean this compound: COc1cc(-c2[o+]c3cc(O)cc(O)c3cc2O[C@@H]2O[C@H](CO)[C@@H](O)[C@H](O)[C@H]2O)ccc1O [compound 10, peonidin-3-glucoside]
< 50%

Can you share its inhibition at 100 µg/mL? I mean this compound: "O=c1c(O[C@@H]2O[C@H](CO)[C@@H](O)[C@H](O)[C@H]2O)c(-c2ccc(O)c(O)c2)oc2cc(O)cc(O)c12"
< 50%

###

# target: PTP1β (human, recombinant) (Homo sapiens)
# Construct: purchased BIOMOL International LP (Plymouth Meeting, PA)
# test.summary: PTP1β inhibitory activity assay (pNPP substrate)
# Assay type: biochemical
# protocol.conditions: Table 2, isolated compounds; mean of 3 duplication analyses; read-out: IC50 (μg/ml) (converted)
Some compounds, each annotated with its measured IC50.
Note: unit µM is implicit; provide only the numeric part.

Recorded results for 3 compounds are shown here.
COc1cc(-c2oc3cc(O)cc(O)c3c(=O)c2O[C@@H]2O[C@H](CO)[C@@H](O)[C@H](O)[C@H]2O)ccc1O [compound 7, 3′-methoxyhirsutrin] ... 64
OC[C@H]1O[C@@H](Oc2cc3c(O)cc(O)cc3[o+]c2-c2ccc(O)cc2)[C@H](O)[C@@H](O)[C@@H]1O [compound 9, pelargonidin-3-glucoside] ... 211
COc1cc(/C=C/C(=O)O)ccc1O [compound 5, ferulic acid] ... 185

Turning to the following compound.
Can you share its IC50? I mean this compound: O=C(O)CC(=O)OC[C@H]1O[C@@H](Oc2cc3c(O)cc(O)cc3[o+]c2-c2ccc(O)c(O)c2)[C@H](O)[C@@H](O)[C@@H]1O [compound 11, cyanidin-3-(6”-malonylglucoside)]
54.1

###

# target: PTP1β (human, recombinant) (Homo sapiens)
# Construct: purchased BIOMOL International LP (Plymouth Meeting, PA)
# test.summary: PTP1β inhibitory activity assay (pNPP substrate)
# Format: biochemical
# protocol.conditions: isolated compounds; read-out: IC50
Some compounds, each annotated with its measured IC50.
Note: unit µM is implicit; provide only the numeric part.

Recorded results for 3 compounds are shown here.
COc1cc(-c2oc3cc(O)cc(O)c3c(=O)c2O[C@@H]2O[C@H](CO)[C@@H](O)[C@H](O)[C@H]2O)ccc1O ... 64
OC[C@H]1O[C@@H](Oc2cc3c(O)cc(O)cc3[o+]c2-c2ccc(O)cc2)[C@H](O)[C@@H](O)[C@@H]1O [compound 9, pelargonidin-3-glucoside] ... 211
O=C(O)CC(=O)OC[C@H]1O[C@@H](Oc2cc3c(O)cc(O)cc3[o+]c2-c2ccc(O)c(O)c2)[C@H](O)[C@@H](O)[C@@H]1O [compound 11, cyanidin-3-(6”-malonylglucoside)] ... 54.1

Turning to the following compound.
Can you share its IC50? I mean this compound: "COc1cc(/C=C/C(=O)O)ccc1O"
185

###

# target: PTP1β (human, recombinant) (Homo sapiens, UniProt P18031)
# Construct: purchased BIOMOL International LP (Plymouth Meeting, PA)
# test.summary: PTP1β inhibitory activity assay (pNPP substrate)
# Type: biochemical
# protocol.conditions: Table 2; concentration 10 μg/mL
readout.type: inhibition at 10 µg/mL (%)
Note: unit % is implicit; provide only the numeric part.

Recorded results for 3 compounds are shown here.
OC[C@H]1O[C@@H](Oc2cc3c(O)cc(O)cc3[o+]c2-c2ccc(O)cc2)[C@H](O)[C@@H](O)[C@@H]1O [compound 9, pelargonidin-3-glucoside] ... 1.09
O=C(O)CC(=O)OC[C@H]1O[C@@H](Oc2cc3c(O)cc(O)cc3[o+]c2-c2ccc(O)c(O)c2)[C@H](O)[C@@H](O)[C@@H]1O [compound 11, cyanidin-3-(6”-malonylglucoside)] ... 18.5
COc1cc(-c2oc3cc(O)cc(O)c3c(=O)c2O[C@@H]2O[C@H](CO)[C@@H](O)[C@H](O)[C@H]2O)ccc1O [compound 7, 3′-methoxyhirsutrin] ... 15

Turning to the following compound.
Can you share its inhibition at 10 µg/mL? I mean this compound: COc1cc(/C=C/C(=O)O)ccc1O [compound 5, ferulic acid]
28.3

###

# target: PTP1β (human, recombinant) (Homo sapiens, UniProt P18031)
# Construct: purchased BIOMOL International LP (Plymouth Meeting, PA)
# test.summary: PTP1β inhibitory activity assay (pNPP substrate)
# Type: biochemical
# protocol.conditions: Table 2; concentration 50 μg/mL
readout.type: inhibition at 50 µg/mL (%)
Note: unit % is implicit; provide only the numeric part.

Can you share its inhibition at 50 µg/mL? I mean this compound: OC[C@H]1O[C@@H](Oc2cc3c(O)cc(O)cc3[o+]c2-c2ccc(O)cc2)[C@H](O)[C@@H](O)[C@@H]1O [compound 9, pelargonidin-3-glucoside]
13.3

Can you share its inhibition at 50 µg/mL? I mean this compound: COc1cc(-c2oc3cc(O)cc(O)c3c(=O)c2O[C@@H]2O[C@H](CO)[C@@H](O)[C@H](O)[C@H]2O)ccc1O [compound 7, 3′-methoxyhirsutrin]
85.9

Can you share its inhibition at 50 µg/mL? I mean this compound: COc1cc(/C=C/C(=O)O)ccc1O [compound 5, ferulic acid]
64.5

Can you share its inhibition at 50 µg/mL? I mean this compound: O=C(O)CC(=O)OC[C@H]1O[C@@H](Oc2cc3c(O)cc(O)cc3[o+]c2-c2ccc(O)c(O)c2)[C@H](O)[C@@H](O)[C@@H]1O [compound 11, cyanidin-3-(6”-malonylglucoside)]
91.7
